- Test system: HIV-1 wild-type (R8) virus
- assay_name: Viral KINetics in Green cells (VIKING) assay, HIV-1 replication in MT4-GFP reporter cells
- Assay type: cell-based
- recorded_conditions: Human immunodeficiency virus 1, 10% normal human serum, MT4-GFP cells, HIV-1 wild-type (R8); read-out: Viking (10% NHS), IC50
Decision: IC50 beneath 4 nM gives 1; IC50 meeting or exceeding 4 nM gives 0.

Reference set (5 entries):
Ask: I wonder whether C#C[C@]1(CO)O[C@@H](n2ccc3c(N(C(=O)OCCCCCCCC)C(=O)OCCCCCCCC)nc(Cl)nc32)C[C@@H]1O has IC50 below 4 nM. Can you tell?
Result: 0

Ask: Is IC50 strictly under 4 nM for the entry C#C[C@]1(COC(=O)OCc2ccccc2)O[C@@H](n2ccc3c(N)nc(Cl)nc32)C[C@@H]1OC(=O)CCCC[C@@H]1SC[C@@H]2NC(=O)N[C@@H]21 ?
Result: 0

Ask: Here's an entry: C#C[C@]1(COC(=O)CCCCCCCCC)O[C@@H](n2ccc3c(N)nc(Cl)nc32)C[C@@H]1OC(C)=O . Is its IC50 below 4 nM?
Result: 0

Ask: A record lists C#C[C@]1(COC(=O)CCCCCC)O[C@@H](n2ccc3c(N)nc(Cl)nc32)C[C@@H]1O . Is its IC50 below 4 nM?
Result: 1

Ask: I'd appreciate it if you could check whether C#C[C@]1(COC(=O)OCCC23CC4CC(CC(C4)C2)C3)O[C@@H](n2ccc3c(N)nc(Cl)nc32)C[C@@H]1O has IC50 smaller than 4 nM.
Result: 0

Please look at the following compound next.
Ask: Given C#C[C@]1(COC(=O)O[C@@H](C)c2ccccc2)O[C@@H](n2ccc3c(N)nc(Cl)nc32)C[C@@H]1O , is recorded IC50 strictly lower than 4 nM?
Result: 1

----------
- assay_name: Aqueous solubility in PBS, pH 7.4
- Format: physicochemical
- recorded_conditions: phosphate buffered saline, pH 7.4, aqueous buffer, thermodynamic from solid, pH 7.4 phosphate buffered saline, 24 hours, amorphous or crystalline material; read-out: Aqu. Solubility
parameter_measured: solubility at 24 h

Ask: Suppose we examine the compound C#C[C@]1(COC(=O)CCCCC)O[C@@H](n2ccc3c(N)nc(Cl)nc32)C[C@@H]1O ; what solubility at 24 h value has been reported?
Result: 39 µg/mL

Ask: Field request: solubility at 24 h | item: C#C[C@]1(CO)O[C@@H](n2ccc3c(N)nc(Cl)nc32)C[C@@H]1OC(=O)CCCCCCCC
Result: < 1 µg/mL

Ask: // query solubility at 24 h value for entry C#C[C@]1(CO)O[C@@H](n2ccc3c(N)nc(Cl)nc32)C[C@@H]1OC(=O)CCCOC(C)=O
Result: 143 µg/mL

Ask: What value of measured solubility at 24 h is listed for C#C[C@]1(CO)O[C@@H](n2ccc3c(NC(=O)CCc4ccccc4)nc(Cl)nc32)C[C@@H]1O ?
Result: 307 µg/mL

Ask: Entry C#C[C@]1(COC(=O)OCc2ccccc2)O[C@@H](n2ccc3c(N)nc(Cl)nc32)C[C@@H]1OC(=O)OCc1cccnc1 : reported solubility at 24 h = ?
Result: < 1 µg/mL

Ask: # query: solubility at 24 h of entry C#C[C@]1(CO)O[C@@H](n2ccc3c(N)nc(Cl)nc32)C[C@@H]1OC(=O)CCCCCC
Result: < 1 µg/mL

Next:
Ask: What value of solubility at 24 h has been reported for the following compound? C#C[C@]1(CO)O[C@@H](n2ccc3c(N)nc(Cl)nc32)C[C@@H]1OC(=O)OC(C)C
Result: 42 µg/mL

----------
- Test system: HIV-1 wild-type (R8) virus
- assay_name: Viral KINetics in Green cells (VIKING) assay, HIV-1 replication in MT4-GFP reporter cells
- Type: cell-based
- recorded_conditions: Human immunodeficiency virus 1, 10% normal human serum, MT4-GFP cells, HIV-1 wild-type (R8); read-out: Viking (10% NHS), IC50
# reported IC50; entries follow

# annotated cases, reported IC50 shown
Ask: Reported IC50, compound C#C[C@]1(COC(=O)OCc2cccnc2)O[C@@H](n2ccc3c(N)nc(Cl)nc32)C[C@@H]1O : ____
Result: 4.9 nM

Ask: Look at this compound and give its reported IC50. C#C[C@]1(COCOC(=O)Oc2ccccc2)O[C@@H](n2ccc3c(N)nc(Cl)nc32)C[C@@H]1O
Result: 3.8 nM

Ask: Requested read-out: IC50. Entry: C#C[C@]1(COC(=O)CCCCCCCC)O[C@@H](n2ccc3c(N)nc(Cl)nc32)C[C@@H]1O
Result: 4.3 nM

Ask: Item under review: C#C[C@]1(COC(=O)OCCCCCCCCCC)O[C@@H](n2ccc3c(N)nc(Cl)nc32)C[C@@H]1O . Reported IC50?
Result: 2.1 nM

Ask: What does the record list as IC50 for C#C[C@]1(CO)O[C@@H](n2ccc3c(N)nc(Cl)nc32)C[C@@H]1OC(=O)OCCCCCCCCC ?
Result: 8 nM

Ask: Look at this compound and give its reported IC50. C#C[C@]1(COC(=O)CCCC[C@@H]2SC[C@@H]3NC(=O)N[C@@H]32)O[C@@H](n2ccc3c(N)nc(Cl)nc32)C[C@@H]1OC(=O)CCCC[C@@H]1SC[C@@H]2NC(=O)N[C@@H]21
Result: 69 nM

Ask: Which value of IC50 has been reported for C#C[C@]1(CO)O[C@@H](n2ccc3c(NC(=O)CCCc4ccccc4)nc(Cl)nc32)C[C@@H]1O in the records?
Result: 63 nM

Ask: # query: IC50 of entry C#C[C@]1(CO)O[C@@H](n2ccc3c(N(C(=O)OCCCCCCCCCCCC)C(=O)OCCCCCCCCCCCC)nc(Cl)nc32)C[C@@H]1O
Result: > 4030 nM

Ask: Given the entry C#C[C@]1(COC(=O)CC(C)(C)c2c(C)cc(C)cc2OC(C)=O)O[C@@H](n2ccc3c(N)nc(Cl)nc32)C[C@@H]1O , report its measured IC50.
Result: 2.7 nM

Ask: I am curious: what IC50 value has been reported for C#C[C@]1(COC(=O)CC23CC(C2)C3)O[C@@H](n2ccc3c(N)nc(Cl)nc32)C[C@@H]1OC(=O)OCCC12CC3CC(CC(C3)C1)C2 ?
Result: 20 nM

Further cases:
Ask: Quick one: IC50 of C#C[C@]1(COC(=O)C(CC)CC)O[C@@H](n2ccc3c(N)nc(Cl)nc32)C[C@@H]1OC(=O)C(CC)CC ?
Result: 351 nM

Ask: # input compound: C#C[C@]1(CO)O[C@@H](n2ccc3c(NC(=O)OCCCCCC)nc(Cl)nc32)C[C@@H]1O ; wanted: its IC50
Result: 710 nM

Ask: // lookup IC50 for C#C[C@]1(COC(=O)[C@H](C)c2ccccc2)O[C@@H](n2ccc3c(N)nc(Cl)nc32)C[C@@H]1O
Result: 2.5 nM

Ask: Given the compound C#C[C@]1(COC(=O)CCCC)O[C@@H](n2ccc3c(N)nc(Cl)nc32)C[C@@H]1OC(=O)OCC , what is its reported IC50?
Result: 19 nM

----------
- assay_name: Aqueous solubility in PBS, pH 7.4
- Type: physicochemical
- recorded_conditions: phosphate buffered saline, pH 7.4, aqueous buffer, thermodynamic from solid, pH 7.4 phosphate buffered saline, 24 hours, amorphous or crystalline material; read-out: Aqu. Solubility
parameter_measured: solubility at 24 h (µg/mL)
Kindly provide the numeric value in µg/mL only, without the unit symbol.

Please review the entries below; each comes with its answer.
Ask: For the compound shown here, C#C[C@]1(CO)O[C@@H](n2ccc3c(N)nc(Cl)nc32)C[C@@H]1OC(=O)Cc1ccc(F)cc1 [Example 31] , give the reported solubility at 24 h.
Result: 11

Ask: Item under review: C#C[C@]1(CO)O[C@@H](n2ccc3c(N)nc(Cl)nc32)C[C@@H]1OC(=O)C(C)C [Example 2] . Reported solubility at 24 h?
Result: 136

Turning now to a further compound:
Ask: Looking for the measured solubility at 24 h of C#C[C@]1(COC(=O)Cc2ccc(F)cc2)O[C@@H](n2ccc3c(N)nc(Cl)nc32)C[C@@H]1O [Example 37] , can you help?
Result: 118

----------
- assay_name: Aqueous solubility in PBS, pH 7.4
- Type: physicochemical
- recorded_conditions: phosphate buffered saline, pH 7.4, aqueous buffer, thermodynamic from solid, pH 7.4 phosphate buffered saline, 24 hours, amorphous or crystalline material; read-out: Aqu. Solubility
parameter_measured: log10 of solubility at 24 h (log10 of the value in µg/mL)
Short version: log10 scale, solubility at 24 h, µg/mL.

Example cases with answers are listed next.
Ask: Would you mind telling me what log10 of solubility at 24 h value was observed for C#C[C@]1(CO)O[C@@H](n2ccc3c(N)nc(Cl)nc32)C[C@@H]1OC(=O)CC ?
Result: 2.35

Ask: State the recorded log10 of solubility at 24 h for this entry: C#C[C@]1(COC(=O)Cc2ccc(Cl)cc2)O[C@@H](n2ccc3c(N)nc(Cl)nc32)C[C@@H]1O
Result: 1.61

Ask: Query (compound): C#C[C@]1(COC(=O)OC(CC)CC)O[C@@H](n2ccc3c(N)nc(Cl)nc32)C[C@@H]1O ; field requested: log10 of solubility at 24 h
Result: 2.16

Ask: Entry under review: C#C[C@]1(COC(=O)CC(C)(C)C)O[C@@H](n2ccc3c(N)nc(Cl)nc32)C[C@@H]1O . Reported log10 of solubility at 24 h?
Result: 2.56

Please look at the following compound next.
Ask: Would you kindly share the measured log10 of solubility at 24 h for C#C[C@]1(CO)O[C@@H](n2ccc3c(N)nc(Cl)nc32)C[C@@H]1OC(=O)Oc1ccccc1 ?
Result: 0.46
